- Test system: SK-MES-1
- run description: relative viability (nuclei count vs DMSO), 5 days (fraction); higher = more cells survive
- assay setup: first compound 0.253 µM
Please use YES for relative viability under 0.8 and NO for everything else, ties included.

Solved entries:
1. O=c1cc(-c2cccc3c2Sc2ccccc2S3)oc(N2CCOCC2)c1 + Cc1cc(Nc2cc(N3CCN(C)CC3)nc(Sc3ccc(NC(=O)C4CC4)cc3)n2)n[nH]1 [Tozasertib] (partner 0.1 µM); NO
2. COc1nc(C)cnc1NS(=O)(=O)c1cccnc1-c1ccc(-c2nnco2)cc1 [Zibotentan] + C[C@]1(O)C[C@@H](c2nc(-c3ccc4ccc(-c5ccccc5)nc4c3)c3c(N)nccn32)C1 [Linsitinib] (partner 1 µM); NO

Challenge: Hello, is relative viability of the following compound strictly smaller than 0.8? O=c1cc(-c2cccc3c2Sc2ccccc2S3)oc(N2CCOCC2)c1 + CS(=O)(=O)N1CCN(Cc2cc3nc(-c4cccc5[nH]ncc45)nc(N4CCOCC4)c3s2)CC1 [Pictilisib] (partner 1 µM)
Response given: YES

Challenge: State whether 0.8 exceeds relative viability recorded for COc1nc(C)cnc1NS(=O)(=O)c1cccnc1-c1ccc(-c2nnco2)cc1 [Zibotentan] + COc1cccc2cc(-c3nc([C@H]4CC[C@H](C(=O)O)CC4)n4ncnc(N)c34)[nH]c12 [OSI-027] (partner 0.5 µM) .
Response given: YES

Challenge: Lab note: confirm whether the reported relative viability for this compound is below 0.8, equality not counting. compound: O=c1cc(-c2cccc3c2Sc2ccccc2S3)oc(N2CCOCC2)c1 + CCNC(=O)c1noc(-c2cc(C(C)C)c(O)cc2O)c1-c1ccc(CN2CCOCC2)cc1 [Luminespib] (partner 0.01 µM)
Response given: YES

Challenge: Report whether reported relative viability is lower than 0.8 (strictly) for O=c1cc(-c2cccc3c2Sc2ccccc2S3)oc(N2CCOCC2)c1 + CS(=O)(=O)CCNCc1ccc(-c2ccc3ncnc(Nc4ccc(OCc5cccc(F)c5)c(Cl)c4)c3c2)o1 [Lapatinib] (partner 2 µM)
Response given: YES

Challenge: is_below(relative viability, 0.8) for O=c1cc(-c2cccc3c2Sc2ccccc2S3)oc(N2CCOCC2)c1 + C[C@]1(O)C[C@@H](c2nc(-c3ccc4ccc(-c5ccccc5)nc4c3)c3c(N)nccn32)C1 [Linsitinib] (partner 1 µM) ?
Response given: NO

---

- Tested on: HCC-827
- run description: relative viability (nuclei count vs DMSO), 5 days (fraction); higher = more cells survive
- assay setup: first compound 20 µM
quantity measured: relative viability

Past entries and their recorded results:
1) COCC1(CO)C(=O)C2CCN1CC2 (stereo unspecified) [PRIMA-1MET] + COc1cc2c(Oc3ccc(NC(=O)C4(C(=O)Nc5ccc(F)cc5)CC4)cc3F)ccnc2cc1OCCCN1CCOCC1 [Foretinib] (partner 0.25 µM); 0.929
2) COCC1(CO)C(=O)C2CCN1CC2 (stereo unspecified) [PRIMA-1MET] + Cc1nc(Nc2ncc(C(=O)Nc3c(C)cccc3Cl)s2)cc(N2CCN(CCO)CC2)n1 [Dasatinib] (partner 0.075 µM); 0.315
3) COCC1(CO)C(=O)C2CCN1CC2 (stereo unspecified) [PRIMA-1MET] + CC(=O)Nc1cccc(-n2c(=O)n(C3CC3)c(=O)c3c(Nc4ccc(I)cc4F)n(C)c(=O)c(C)c32)c1 [Trametinib] (partner 0.02 µM); 0.481
4) COCC1(CO)C(=O)C2CCN1CC2 (stereo unspecified) [PRIMA-1MET] + CCNC(=O)c1noc(-c2cc(C(C)C)c(O)cc2O)c1-c1ccc(CN2CCOCC2)cc1 [Luminespib] (partner 0.01 µM); 0.447
5) COCC1(CO)C(=O)C2CCN1CC2 (stereo unspecified) [PRIMA-1MET] + C[C@]1(O)C[C@@H](c2nc(-c3ccc4ccc(-c5ccccc5)nc4c3)c3c(N)nccn32)C1 [Linsitinib] (partner 1 µM); 0.906

Challenge: Let me know recorded relative viability for COCC1(CO)C(=O)C2CCN1CC2 (stereo unspecified) [PRIMA-1MET] + C[C@@H](Oc1cc(-c2cnn(C3CCNCC3)c2)cnc1N)c1c(Cl)ccc(F)c1Cl [Crizotinib] (partner 1 µM) , thanks.
Response given: 0.896

---

- Test system: CAL-12T
- run description: relative viability (nuclei count vs DMSO), 5 days (fraction); higher = more cells survive
- assay setup: first compound 0.03162 µM
quantity measured: relative viability
Provide a numeric answer; units are not to be included.

Below are worked cases with known answers.
1) O=c1cc(N2CCOCC2)oc2c(-c3cccc4c3sc3ccccc34)cccc12 + COc1cccc2cc(-c3nc([C@H]4CC[C@H](C(=O)O)CC4)n4ncnc(N)c34)[nH]c12 [OSI-027] (partner 0.5 µM); 0.71
2) O=c1cc(N2CCOCC2)oc2c(-c3cccc4c3sc3ccccc34)cccc12 + O=C(c1cc(Cc2n[nH]c(=O)c3ccccc23)ccc1F)N1CCN(C(=O)C2CC2)CC1 [Olaparib] (partner 8 µM); 0.707
3) CCN(CC)CCCCNc1ncc2cc(-c3cc(OC)cc(OC)c3)c(NC(=O)NC(C)(C)C)nc2n1 + NC(=O)Nc1cc(-c2cccc(F)c2)sc1C(=O)N[C@H]1CCCNC1 [AZD7762] (partner 0.2 µM); 0.564

Turning now to a further record.
Challenge: Tell me its relative viability given O=c1cc(N2CCOCC2)oc2c(-c3cccc4c3sc3ccccc34)cccc12 + COc1cc2c(Oc3ccc(NC(=O)C4(C(=O)Nc5ccc(F)cc5)CC4)cc3F)ccnc2cc1OCCCN1CCOCC1 [Foretinib] (partner 0.25 µM) as the entry.
Response given: 0.973

---

- Test system: EKVX
- run description: relative viability (nuclei count vs DMSO), 5 days (fraction); higher = more cells survive
- assay setup: first compound 20 µM
quantity measured: relative viability
Respond using a number only.

Please review the entries below; each comes with its answer.
1. COCC1(CO)C(=O)C2CCN1CC2 (configuration not stated) [PRIMA-1MET] + COc1cc2c(Oc3ccc(NC(=O)C4(C(=O)Nc5ccc(F)cc5)CC4)cc3F)ccnc2cc1OCCCN1CCOCC1 [Foretinib] (partner 0.25 µM); 0.843
2. COCC1(CO)C(=O)C2CCN1CC2 (configuration not stated) [PRIMA-1MET] + CS(=O)(=O)CCNCc1ccc(-c2ccc3ncnc(Nc4ccc(OCc5cccc(F)c5)c(Cl)c4)c3c2)o1 [Lapatinib] (partner 2 µM); 0.201
3. COCC1(CO)C(=O)C2CCN1CC2 (configuration not stated) [PRIMA-1MET] + Cc1nc(NC(=O)N2CCC[C@H]2C(N)=O)sc1-c1ccnc(C(C)(C)C(F)(F)F)c1 [Alpelisib] (partner 2 µM); 0.778
4. COCC1(CO)C(=O)C2CCN1CC2 (configuration not stated) [PRIMA-1MET] + Nc1nc2[nH]cc(CCc3ccc(C(=O)N[C@@H](CCC(=O)O)C(=O)O)cc3)c2c(=O)[nH]1 [Pemetrexed] (partner 0.2 µM); 0.385
5. COCC1(CO)C(=O)C2CCN1CC2 (configuration not stated) [PRIMA-1MET] + C[C@@H](Oc1cc(-c2cnn(C3CCNCC3)c2)cnc1N)c1c(Cl)ccc(F)c1Cl [Crizotinib] (partner 1 µM); 0.891

Challenge: Give the reported value of relative viability for this record: COCC1(CO)C(=O)C2CCN1CC2 (configuration not stated) [PRIMA-1MET] + Nc1ncn([C@H]2C[C@H](O)[C@@H](CO)O2)c(=O)n1 [Decitabine] (partner 2 µM)
Response given: 0.199

Challenge: Identify relative viability associated with the compound COCC1(CO)C(=O)C2CCN1CC2 (configuration not stated) [PRIMA-1MET] + CS(=O)(=O)N1CCN(Cc2cc3nc(-c4cccc5[nH]ncc45)nc(N4CCOCC4)c3s2)CC1 [Pictilisib] (partner 1 µM)
Response given: 0.356

---

- Test system: NCI-H520
- run description: relative viability (nuclei count vs DMSO), 5 days (fraction); higher = more cells survive
- assay setup: first compound 0.08 µM
quantity measured: relative viability
API note: the answer field is a bare number with no unit suffix.

In the examples that follow, each entry is paired with its recorded relative viability.
1. O=c1cc(-c2cccc3c2Sc2ccccc2S3)oc(N2CCOCC2)c1 + CS(=O)(=O)CCNCc1ccc(-c2ccc3ncnc(Nc4ccc(OCc5cccc(F)c5)c(Cl)c4)c3c2)o1 [Lapatinib] (partner 2 µM); 0.767
2. COc1nc(C)cnc1NS(=O)(=O)c1cccnc1-c1ccc(-c2nnco2)cc1 [Zibotentan] + COc1cc2c(Oc3ccc(NC(=O)C4(C(=O)Nc5ccc(F)cc5)CC4)cc3F)ccnc2cc1OCCCN1CCOCC1 [Foretinib] (partner 0.25 µM); 0.811
3. COc1nc(C)cnc1NS(=O)(=O)c1cccnc1-c1ccc(-c2nnco2)cc1 [Zibotentan] + CS(=O)(=O)N1CCN(Cc2cc3nc(-c4cccc5[nH]ncc45)nc(N4CCOCC4)c3s2)CC1 [Pictilisib] (partner 1 µM); 0.336

Challenge: For the compound COc1nc(C)cnc1NS(=O)(=O)c1cccnc1-c1ccc(-c2nnco2)cc1 [Zibotentan] + N=C(N)NC(=N)NCCc1ccccc1 [Phenformin] (partner 250 µM) , give its reported relative viability.
Response given: 0.726
